- Test system: HCT-15 colon
- test: NCI-60 one-dose screen, 48 h
- conditionSummary: 10 µM unless noted
This is part of a sample that, as a whole, favours compounds with a hit. Of some 83,000 tested, about 20% had one in any assay. Active and inactive are the calls of the source. Rule for the calls: active = growth percent below 10; inactive = the rest.
Classes used: active, inactive

| molecule | target | cat |
| --- | --- | --- |
| OCCOc1c(Cl)cc(Cl)cc1Cl | HCT-15 colon | inactive |
| CN(C)CCCN1c2nc3ccccc3cc2Sc2cc3ccccc3nc21 | HCT-15 colon | active |
| CC(=O)NC1(C(=O)O)CCCC1 | HCT-15 colon | inactive |
| C/C(=C\CCc1ccsc1)CC/C=C(\C)CCCN1CCN(CCO)CC1 | HCT-15 colon | active |
| O=C(/C=C/c1ccc(O)c(O)c1)N1CCN(c2ccc(Cl)cc2)CC1 | HCT-15 colon | inactive |
| COc1cc2c(-c3nc4cc(Cl)c(F)cc4s3)cc(=O)oc2c(C)c1OC | HCT-15 colon | active |
| CN1C(=O)/C(=C/c2nc(-c3cccc(F)c3)n3ccccc23)c2ccccc21 | HCT-15 colon | inactive |
| CC(=O)Nc1ccc2c(c1)Cc1c(F)c(F)c(F)c(F)c1-2 | HCT-15 colon | inactive |
| O=C(CCc1nnc2sc(-c3ccc(Cl)cc3Cl)nn12)c1nc2ccccc2[nH]1 | HCT-15 colon | active |
| COc1cc(C2CC(c3ccc(C)cc3)=NN2C(C)=O)ccc1Oc1ccnc2cc(Cl)ccc12 (stereo unspecified) | HCT-15 colon | inactive |
| O=C1c2ccccc2C(=O)c2c1cccc2-n1nnc2ccccc21 | HCT-15 colon | inactive |
